# target entity: recombinant DYRK1A kinase (Homo sapiens)
# test method notes: DYRK1A kinase assay (Ser/Thr 18 peptide Z-lyte FRET)
# measurement context: DYRK1A kinase activity; 15 μM ATP, 4 μM Ser/Thr peptide 18, one hour at room temperature
Lab note: anything with EC50 below 7 nM is marked criterion met; values at 7 nM or higher are marked criterion not met.

compound | assigned category
COc1ccc(-c2c[nH]c3ncccc23)nn1 | criterion not met
CN1CCN(c2ccc(NC(=O)c3cnc4[nH]cc(-c5ccc6nccnc6c5)c4c3)cn2)CC1 | criterion not met
CN1CCN(c2cccc(Nc3ccc4c(-c5ccc6ncccc6c5)c[nH]c4n3)c2)CC1 | criterion not met
Cc1ccccc1-c1cnc2[nH]cc(-c3cc(F)c4nc(C)n(C(C)C)c4c3)c2c1 | criterion not met
Cc1nc2c(F)cc(-c3c[nH]c4ncc(C(=O)Nc5cnn(C6CCNCC6)c5)cc34)cc2n1C(C)C | criterion met
Cn1cc2cc(-c3c[nH]c4ncccc34)ccc2n1 | criterion met
O=C(Nc1ccncc1)c1ccc2c(-c3ccc4ncccc4c3)c[nH]c2n1 | criterion not met
c1cnc2[nH]cc(-c3nc4cnccc4[nH]3)c2c1 | criterion not met
CN1CCC(NC(=O)c2ccc3c(-c4ccc5ncnn5c4)c[nH]c3n2)CC1 | criterion not met
c1cnc2[nH]cc(-c3ccnc4[nH]ccc34)c2c1 [Compound 2, 1H,1′H-3,4′-Bipyrrolo[2,3-b]pyridine] | criterion not met
c1cn2cc(-c3c[nH]c4nc(C5CC5)ccc34)ccc2n1 | criterion not met
O=C(c1ccnc2ccc(-c3c[nH]c4ncccc34)cc12)N1CCNC2(CC2)C1 | criterion met
c1cnc2[nH]cc(-c3ccn4nccc4c3)c2c1 | criterion met
c1cnc2ccc(-c3c[nH]c4nccc(NCc5ccc(-n6ccnc6)nc5)c34)cc2c1 | criterion not met
CN1CCC(Oc2ccc(Nc3ncnc4ccc(-c5c[nH]c6ncccc56)cc34)cn2)CC1 | criterion met
CN1Cc2cc(-c3c[nH]c4ncccc34)ccc2C1=O | criterion not met
c1cn2cc(-c3c[nH]c4nc(C5CC5)ccc34)cnc2n1 | criterion met
